This collection of values is drawn from paper PMC10167072.

# system_under_test: T1, human granzyme B (human, UniProt P10144 19-247)
# T1 construct: granzyme B, human, serine protease; Bought protein; also called GrB; human GrB; source: bought: Hölzel Diagnostics, Cologne, Germany
# test_summary: SPR; GrB immobilised on the chip, TKD peptides injected as analytes at 0, 125, 500, 750 and 1000 nM, 25 °C, 1:1 Langmuir global fit; no nucleotide
# stated_conditions: both partners purified
Reported Kd values for the following binders.
Just the number please, in nM, no unit attached.

-- ask Sample TKDNNLLGKFQLEG (14-mer TKD motif of PfHsp70-x, Plasmodium falciparum; also called PfHsp70-x TKD; source: synthetic peptide (Genscript, Piscataway, NJ, USA)) [synthetic TKD peptide representing the 14-mer TKD motif of PfHsp70-x] — what was its Kd?
-- reply 20

Further cases:
-- ask Which Kd value is on record for TKDNNLLGRFELSG (14-mer TKD motif of human Hsp70, amino acids 450-463; also called hHsp70 TKD motif) [TKD motif of hHsp70 (14-mer peptide)] ?
-- reply 4
